Biological target: CC chemokine receptor 4 (CCR4) (Mus musculus)
Sequence (P51680 1-360): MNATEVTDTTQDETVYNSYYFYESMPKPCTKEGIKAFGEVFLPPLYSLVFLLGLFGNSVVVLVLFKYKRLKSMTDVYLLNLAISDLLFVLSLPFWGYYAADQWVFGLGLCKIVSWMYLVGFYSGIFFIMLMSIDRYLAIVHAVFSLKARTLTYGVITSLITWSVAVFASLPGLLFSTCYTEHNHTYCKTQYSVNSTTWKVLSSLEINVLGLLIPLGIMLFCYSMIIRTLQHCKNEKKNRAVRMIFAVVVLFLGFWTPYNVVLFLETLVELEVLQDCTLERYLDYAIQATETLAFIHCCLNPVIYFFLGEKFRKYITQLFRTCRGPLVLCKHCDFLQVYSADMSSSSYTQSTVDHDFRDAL
Assay: inhibition of CCL22-driven chemotaxis of mouse iTreg in […] serum
Measurement label: IC50

Data request: What value of IC50 has been reported for the following molecule? C[C@H](c1ccc(Cl)cc1Cl)n1nc(C#N)c2ncc(N3CC([C@H]4CCCN(CCO)C4)C3)nc21
Data returned: ~40 nM

----------
Target: CC chemokine receptor 4 (CCR4) (Homo sapiens)
Sequence (P51679 1-360): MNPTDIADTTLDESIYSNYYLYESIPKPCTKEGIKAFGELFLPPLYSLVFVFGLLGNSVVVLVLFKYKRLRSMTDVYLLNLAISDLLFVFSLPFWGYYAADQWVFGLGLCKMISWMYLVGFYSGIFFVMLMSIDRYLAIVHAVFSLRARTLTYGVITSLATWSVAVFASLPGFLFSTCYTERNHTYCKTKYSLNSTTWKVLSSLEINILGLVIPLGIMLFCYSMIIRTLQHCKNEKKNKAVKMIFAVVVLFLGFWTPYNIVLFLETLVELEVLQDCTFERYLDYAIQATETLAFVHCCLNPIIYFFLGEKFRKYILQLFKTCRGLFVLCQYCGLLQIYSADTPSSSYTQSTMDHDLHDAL
Experiment: inhibition of CCL22-driven chemotaxis of human iTreg in […] serum
Measurement label: IC50

Data request: Look at this compound and give its reported IC50. C[C@H](c1ccc(Cl)cc1Cl)n1nc(C#N)c2ncc(N3CC([C@H]4CCCN(CCO)C4)C3)nc21 [CCR4-351]
Data returned: ~40 nM
